Where do the numbers come from? From patent US10329307B2.

Can you tell me IC50 for the items I'm about to list?
# subject-of-test: PAR4 (Homo sapiens (Human), UniProt Q96RI0)
# Sequence (Q96RI0 18-385): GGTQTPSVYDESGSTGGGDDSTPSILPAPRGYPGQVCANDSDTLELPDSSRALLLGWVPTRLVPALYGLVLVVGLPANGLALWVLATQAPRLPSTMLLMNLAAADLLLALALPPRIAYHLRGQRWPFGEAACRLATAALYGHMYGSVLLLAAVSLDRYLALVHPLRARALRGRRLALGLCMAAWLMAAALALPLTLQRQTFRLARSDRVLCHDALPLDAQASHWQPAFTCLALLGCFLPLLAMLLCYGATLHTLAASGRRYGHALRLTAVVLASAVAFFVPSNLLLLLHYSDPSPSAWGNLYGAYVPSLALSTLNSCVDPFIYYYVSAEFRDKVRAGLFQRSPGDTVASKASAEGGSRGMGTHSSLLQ
# test-description: FLIPR assay in PAR4-expressing HEK293 cells (PAR4 antagonist activity)
# settings: H-Ala-Phe(4-F)-Pro-Gly-Trp-Leu-Val-Lys-Asn-Gly-NH2-induced intracellular calcium mobilization, 11-point curves
Answers are plain numbers, in nM.

// for each compound in input: emit IC50
1. COc1cc(OC[C@H]2CCCN(c3ccccc3)C2)c2cc(-c3cn4nc(OC)sc4n3)oc2c1 [Example 54]
2. COc1cc(OCC2CCCN(c3cc(C#N)ccn3)C2)c2cc(-c3cn4nc(OC)sc4n3)oc2c1 (centres unmarked) [Example 43]
3. COc1ccc(N2CCN(C(=O)c3ccccc3)CC2COc2cc(OC)cc3oc(-c4cn5nc(C)ccc5n4)cc23)cc1 (centres unmarked) [Example 5]
4. COc1cc(OCC2CCCCN2c2ccc(C#N)cc2)c2cc(-c3cn4nc(OC)sc4n3)oc2c1 (centres unmarked) [Example 46]
5. COc1cc(OCC2CCCN(c3ccc(Cl)cn3)C2)c2cc(-c3cn4nc(OC)sc4n3)oc2c1 (single isomer, unassigned) [Example 65]

[A]
1: 1400; 2: 480; 3: 24000; 4: 240; 5: 1000

* * *

# subject-of-test: PAR4 (Homo sapiens (Human), UniProt Q96RI0)
# test-description: FLIPR assay in PAR4-expressing HEK293 cells (PAR4 antagonist activity)
# Format: cell-based
# settings: H-Ala-Phe(4-F)-Pro-Gly-Trp-Leu-Val-Lys-Asn-Gly-NH2-induced intracellular calcium mobilization, 11-point curves
Can you tell me pIC50 for the items I'm about to list?
One number for each entry, as −log10 of the molar value.

// below: answered compounds
compound="COc1cc(OC[C@H]2CCCN2c2ccc(Cl)cc2)c2cc(-c3cn4nc(OC)sc4n3)oc2c1 [Example 9]" subject_of_test="PAR4 (Homo sapiens (Human), UniProt Q96RI0)" experimental_readout=pIC50 value_reported=6.02
compound="COc1ccc(N2CCNCC2COc2cc(OC)cc3oc(-c4cn5nc(C)ccc5n4)cc23)cc1 (stereo not shown) [Example 4]" subject_of_test="PAR4 (Homo sapiens (Human), UniProt Q96RI0)" experimental_readout=pIC50 value_reported=3.34
compound="CCOC(=O)c1ccc(N2CCC(COc3cc(OC)cc4oc(-c5cn6nc(OC)sc6n5)cc34)CC2)cc1 [Example 47]" subject_of_test="PAR4 (Homo sapiens (Human), UniProt Q96RI0)" experimental_readout=pIC50 value_reported=6.00
compound="CCOC(=O)c1ccc(N2CCC[C@@H]2COc2cc(OC)cc3oc(-c4cn5nc(OC)sc5n4)cc23)cc1 [Example 13]" subject_of_test="PAR4 (Homo sapiens (Human), UniProt Q96RI0)" experimental_readout=pIC50 value_reported=6.26
compound="COc1cc(OC[C@@H]2CCCN2c2ccc3c(c2)OCO3)c2cc(-c3cn4nc(OC)sc4n3)oc2c1 [Example 21]" subject_of_test="PAR4 (Homo sapiens (Human), UniProt Q96RI0)" experimental_readout=pIC50 value_reported=6.27
compound="COc1cc(OCC2CCCCN2c2ccc(Cl)cc2)c2cc(-c3cn4nc(OC)sc4n3)oc2c1 (single isomer, unassigned) [Example 56]" subject_of_test="PAR4 (Homo sapiens (Human), UniProt Q96RI0)" experimental_readout=pIC50 value_reported=6.04
compound="COc1cc(OCC2CCN(c3ccc(C#N)cc3)CC2)c2cc(-c3cn4nc(OC)sc4n3)oc2c1 [Example 48]" subject_of_test="PAR4 (Homo sapiens (Human), UniProt Q96RI0)" experimental_readout=pIC50 value_reported=5.96
compound="COc1cc(OCC2CCCN(c3ccc(Cl)cn3)C2)c2cc(-c3cn4nc(OC)sc4n3)oc2c1 (stereo not shown) [Example 63]" subject_of_test="PAR4 (Homo sapiens (Human), UniProt Q96RI0)" experimental_readout=pIC50 value_reported=6.07
compound="COc1ccc(COc2ccc(N3CCCC(COc4cc(OC)cc5oc(-c6cn7nc(OC)sc7n6)cc45)C3)cc2)cc1 (stereo not shown) [Example 70]" subject_of_test="PAR4 (Homo sapiens (Human), UniProt Q96RI0)" experimental_readout=pIC50 value_reported=5.46
compound="COc1cc(OCC2CCC(=O)N(c3ccc(Cl)cc3)C2)c2cc(-c3cn4nc(OC)sc4n3)oc2c1 (stereo not shown) [Example 67]" subject_of_test="PAR4 (Homo sapiens (Human), UniProt Q96RI0)" experimental_readout=pIC50 value_reported=5.48

// for each compound in input: emit pIC50
1. COc1cccc(N2CCC[C@H]2COc2cc(OC)cc3oc(-c4cn5nc(OC)sc5n4)cc23)c1 [Example 19]
2. COc1cc(OC[C@H]2CCC(=O)N2c2ccc(F)cc2)c2cc(-c3cn4nc(OC)sc4n3)oc2c1 [Example 14]
3. COc1cc(OC[C@H]2CCCN(c3ccc(Cl)cc3)C2)c2cc(-c3cn4nc(OC)sc4n3)oc2c1 [Example 35]
4. COc1cc(OCC2CCCN(c3ccc4c(c3)OCO4)C2)c2cc(-c3cn4nc(OC)sc4n3)oc2c1 (stereo not shown) [Example 38]
5. COc1ccc(N2CC[C@@H](COc3cc(OC)cc4oc(-c5cn6nc(OC)sc6n5)cc34)C2)cc1 [Example 26]
6. COc1cc(OCC2CCCCN2c2ccc(Cl)cc2)c2cc(-c3cn4nc(OC)sc4n3)oc2c1 (stereo not shown) [Example 57]

[A]
[6.34, 4.92, 6.08, 6.27, 5.85, 6.13]

// for each compound in input: emit pIC50
1. COc1cc(OC[C@@H]2CCCN(c3ccc(C#N)cc3)C2)c2cc(-c3cn4nc(OC)sc4n3)oc2c1 [Example 28]
2. COc1cc(OCC2CCCN(c3ncc(F)cc3F)C2)c2cc(-c3cn4nc(OC)sc4n3)oc2c1 (stereo not shown) [Example 37]
3. COc1cc(OCC2CN(c3ccc(F)cc3)C2)c2cc(-c3cn4nc(OC)sc4n3)oc2c1 [Example 27]
4. COc1cc(OC[C@H]2CCCN(C(=O)OCc3ccccc3)C2)c2cc(-c3cn4nc(OC)sc4n3)oc2c1 [Example 59]

[A]
5.74
6.25
5.64
5.92

// for each compound in input: emit pIC50
1. COc1cc(OC[C@H]2CCCN2c2ccc(F)cc2)c2cc(-c3cn4nc(OC)sc4n3)oc2c1 [Example 11]
2. COc1cc(OCC2CCCN(c3ccc(Cl)cn3)C2)c2cc(-c3cn4nc(OC)sc4n3)oc2c1 (stereo not shown) [Example 64]

[A]
[6.13, 6.09]

* * *

# subject-of-test: PAR4 (Homo sapiens (Human))
# test-description: FLIPR assay in PAR4-expressing HEK293 cells (PAR4 antagonist activity)
# settings: H-Ala-Phe(4-F)-Pro-Gly-Trp-Leu-Val-Lys-Asn-Gly-NH2-induced intracellular calcium mobilization, 11-point curves
Can you tell me pIC50 for the items I'm about to list?
Numbers only, as −log10 of the molar value.

// below: answered compounds
compound=COc1cc(OC[C@H]2CCCN2c2ccc3c(c2)OCO3)c2cc(-c3cn4nc(OC)sc4n3)oc2c1 subject_of_test="PAR4 (Homo sapiens (Human))" experimental_readout=pIC50 value_reported=6.38
compound=COc1cc(OC[C@@H]2CCCN(c3ccccc3)C2)c2cc(-c3cn4nc(OC)sc4n3)oc2c1 subject_of_test="PAR4 (Homo sapiens (Human))" experimental_readout=pIC50 value_reported=5.74

Shift focus to the following entry.
[Q] Which pIC50 value belongs to COc1ccc(N2CCCC(COc3cc(OC)cc4oc(-c5cn6nc(OC)sc6n5)cc34)C2)cc1 (stereo not drawn) ?
[A] 6.12
